Listing of entries alongside the reported inhibition.
- Assayed Target: Chromaffin cell neuronal nicotinic acetylcholine receptor (Bos taurus) (UniProt Q8SPU6+Q07263+P54131)
- Sequence (P54131 whole entry, looked up): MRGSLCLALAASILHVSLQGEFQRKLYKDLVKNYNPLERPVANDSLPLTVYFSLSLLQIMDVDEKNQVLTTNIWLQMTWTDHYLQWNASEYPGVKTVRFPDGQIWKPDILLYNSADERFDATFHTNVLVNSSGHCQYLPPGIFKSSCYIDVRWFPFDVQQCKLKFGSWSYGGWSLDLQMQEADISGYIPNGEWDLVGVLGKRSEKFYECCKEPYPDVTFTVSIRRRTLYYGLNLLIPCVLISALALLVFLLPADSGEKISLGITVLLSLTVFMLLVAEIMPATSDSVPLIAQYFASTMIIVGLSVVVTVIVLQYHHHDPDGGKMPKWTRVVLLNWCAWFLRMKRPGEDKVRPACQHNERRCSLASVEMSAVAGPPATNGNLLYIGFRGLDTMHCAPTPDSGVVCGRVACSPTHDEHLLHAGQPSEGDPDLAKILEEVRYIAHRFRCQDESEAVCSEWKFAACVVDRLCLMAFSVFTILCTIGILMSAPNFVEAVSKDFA
- Sequence (Q07263 whole entry, looked up): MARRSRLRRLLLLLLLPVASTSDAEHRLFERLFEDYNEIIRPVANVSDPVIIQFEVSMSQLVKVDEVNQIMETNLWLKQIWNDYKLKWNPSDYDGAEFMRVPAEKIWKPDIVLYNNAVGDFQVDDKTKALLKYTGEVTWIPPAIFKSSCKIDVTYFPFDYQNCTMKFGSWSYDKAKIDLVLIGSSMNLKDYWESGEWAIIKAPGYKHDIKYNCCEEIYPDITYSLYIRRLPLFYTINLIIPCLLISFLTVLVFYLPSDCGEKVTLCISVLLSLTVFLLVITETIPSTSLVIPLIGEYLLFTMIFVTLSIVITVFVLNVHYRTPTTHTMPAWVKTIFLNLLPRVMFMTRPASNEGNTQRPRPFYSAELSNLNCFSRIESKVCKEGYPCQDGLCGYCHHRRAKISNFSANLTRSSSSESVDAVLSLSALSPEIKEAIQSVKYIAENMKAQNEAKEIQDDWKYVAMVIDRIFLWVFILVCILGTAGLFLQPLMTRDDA
- Sequence (Q8SPU6 whole entry, looked up): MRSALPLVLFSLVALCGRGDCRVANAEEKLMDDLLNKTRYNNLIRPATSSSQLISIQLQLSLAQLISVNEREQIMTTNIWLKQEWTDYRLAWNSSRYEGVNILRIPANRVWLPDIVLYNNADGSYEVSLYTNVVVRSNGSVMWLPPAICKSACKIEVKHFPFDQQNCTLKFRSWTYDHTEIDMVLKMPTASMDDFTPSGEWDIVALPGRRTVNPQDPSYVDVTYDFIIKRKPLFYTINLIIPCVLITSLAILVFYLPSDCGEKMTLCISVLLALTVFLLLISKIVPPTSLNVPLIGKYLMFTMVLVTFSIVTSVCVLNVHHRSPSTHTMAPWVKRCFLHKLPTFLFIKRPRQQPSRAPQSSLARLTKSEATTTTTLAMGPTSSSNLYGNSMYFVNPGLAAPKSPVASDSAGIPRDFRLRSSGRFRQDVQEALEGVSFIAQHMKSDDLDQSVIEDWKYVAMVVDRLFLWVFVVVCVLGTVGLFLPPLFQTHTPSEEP
- Assay Info: Antagonist activity was determined by inhibition of neuronal nicotine acetylcholine receptor (nAChR)-stimulated catecholamine release in cultured bovine adrenal chromaffin cells
- Format: functional
- Parameters: concentration or dose not given beside the values
- Experimental Context: concentration not given here
Value Kind: inhibition (%)

molecule="CCOCCN1CCCC(COC(=O)c2ccccc2N2C(=O)CC(C)C2=O)C1 (centres undefined)" unit_descriptor=% recorded_result=45.9
molecule="CC1CC(=O)N(c2ccccc2C(=O)OCC2CCCN(CCCc3ccccc3)C2)C1=O (centres undefined)" unit_descriptor=% recorded_result=86.3
molecule=CCN1C[C@]2(COC(=O)c3ccccc3N3C(=O)C[C@H](C)C3=O)CC[C@H](OC)[C@@]34[C@@H]5C[C@H]6[C@H](OC)[C@@H]5[C@](O)(C[C@@H]6OC)[C@](O)([C@@H](OC)[C@H]23)[C@@H]14 unit_descriptor=% recorded_result=95.2
molecule="CC(C)N1CCCC(COC(=O)c2ccccc2N2C(=O)CCC2=O)C1 (centres undefined)" unit_descriptor=% recorded_result=36.4
molecule="CC1CC(=O)N(c2ccccc2C(=O)OCC2CCCN(C)C2)C1=O (centres undefined)" unit_descriptor=% recorded_result=30.1
molecule="CCCCN1CCCC(COC(=O)c2ccccc2N2C(=O)CCC2=O)C1 (centres undefined)" unit_descriptor=% recorded_result=38.4
molecule="CCN1CCCC(COC(=O)c2ccccc2N2C(=O)CC(C)C2=O)C1 (centres undefined)" unit_descriptor=% recorded_result=33.5
molecule="CC1CC(=O)N(c2ccccc2C(=O)OCC2CCCN(C(C)C)C2)C1=O (centres undefined)" unit_descriptor=% recorded_result=56.5
molecule="CC1CC(=O)N(c2ccccc2C(=O)OCC2CCCN(CCc3ccccc3)C2)C1=O (centres undefined)" unit_descriptor=% recorded_result=37

Hello, the source for this data is ChEMBL document CHEMBL1131827, in case you need it.
